Target: human Siglec-7 expressed on human cells (primary monocytes, dendritic cells, macrophages, NK cells, … (human, UniProt Q9Y286 19-467))
Sequence (Q9Y286 19-467): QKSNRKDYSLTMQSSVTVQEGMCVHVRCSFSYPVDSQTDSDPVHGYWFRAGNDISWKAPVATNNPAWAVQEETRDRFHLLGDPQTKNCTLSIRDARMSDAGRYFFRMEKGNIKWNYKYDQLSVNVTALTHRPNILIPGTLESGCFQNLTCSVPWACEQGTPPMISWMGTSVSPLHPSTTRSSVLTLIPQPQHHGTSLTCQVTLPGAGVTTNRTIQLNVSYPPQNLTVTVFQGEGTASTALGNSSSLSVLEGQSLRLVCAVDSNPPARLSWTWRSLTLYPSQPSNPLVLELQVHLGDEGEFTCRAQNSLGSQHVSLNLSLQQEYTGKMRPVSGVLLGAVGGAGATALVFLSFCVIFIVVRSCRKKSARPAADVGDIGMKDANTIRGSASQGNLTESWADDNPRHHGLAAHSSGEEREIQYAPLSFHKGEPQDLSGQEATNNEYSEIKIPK
Assay: cell-based or functional assay
EXPERIMENTAL READOUT: Percent Siglec-7 Surface Expression, Microglia (%)
Hi! Could you send only the number? It should be in %, unit omitted.

| BINDER | ENDPOINT VALUE |
| --- | --- |
| anti-Siglec-7 antibody 4A1 (antibody, V domains shown, Variable domains assembled from FR and CDR entries) VH: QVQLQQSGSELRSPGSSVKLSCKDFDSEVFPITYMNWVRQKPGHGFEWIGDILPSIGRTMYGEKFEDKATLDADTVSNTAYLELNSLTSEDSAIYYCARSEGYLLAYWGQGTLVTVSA VL: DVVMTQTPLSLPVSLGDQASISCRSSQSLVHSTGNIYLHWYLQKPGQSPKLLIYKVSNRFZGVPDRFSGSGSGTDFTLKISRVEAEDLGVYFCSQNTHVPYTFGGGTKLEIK | 26.3 |
| anti-Siglec-7 antibody 2G1 (antibody, V domains shown, Variable domains assembled from FR and CDR entries; the printed VL FR1 looks shortened at its N-terminus; also called 2G11 (misprint in text)) VH: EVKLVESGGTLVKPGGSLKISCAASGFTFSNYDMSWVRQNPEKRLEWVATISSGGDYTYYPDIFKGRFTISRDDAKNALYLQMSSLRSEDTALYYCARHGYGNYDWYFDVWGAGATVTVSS VL: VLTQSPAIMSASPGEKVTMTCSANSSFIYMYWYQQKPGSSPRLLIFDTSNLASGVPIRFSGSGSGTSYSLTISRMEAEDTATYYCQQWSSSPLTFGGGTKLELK | 106 |
| anti-Siglec-7 antibody 2G4 (antibody, V domains shown, Variable domains assembled from FR and CDR entries) VH: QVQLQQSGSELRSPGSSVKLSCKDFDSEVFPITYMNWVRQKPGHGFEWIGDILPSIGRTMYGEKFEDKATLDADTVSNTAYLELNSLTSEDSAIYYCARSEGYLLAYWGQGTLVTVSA VL: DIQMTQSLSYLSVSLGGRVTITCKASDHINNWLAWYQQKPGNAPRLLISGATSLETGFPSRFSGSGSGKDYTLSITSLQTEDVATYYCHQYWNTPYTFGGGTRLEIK | 23 |

input: Identify the reported Percent Siglec-7 Surface Expression, Microglia for the following entry. anti-Siglec-7 antibody 4D7 (antibody, V domains shown, Variable domains assembled from FR and CDR entries) VH: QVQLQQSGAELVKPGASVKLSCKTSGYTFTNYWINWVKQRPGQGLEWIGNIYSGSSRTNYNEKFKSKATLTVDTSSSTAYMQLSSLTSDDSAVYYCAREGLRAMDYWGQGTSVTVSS VL: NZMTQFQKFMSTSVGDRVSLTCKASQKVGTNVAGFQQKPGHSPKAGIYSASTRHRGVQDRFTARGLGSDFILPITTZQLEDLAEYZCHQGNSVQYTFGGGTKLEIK
output: 44.3

input: // Input: anti-Siglec-7 antibody 3E11 (antibody, V domains shown, Variable domains assembled from FR and CDR entries) VH: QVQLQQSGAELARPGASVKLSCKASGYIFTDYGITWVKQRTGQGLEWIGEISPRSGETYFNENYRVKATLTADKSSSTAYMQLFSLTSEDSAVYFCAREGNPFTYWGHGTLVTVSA VL: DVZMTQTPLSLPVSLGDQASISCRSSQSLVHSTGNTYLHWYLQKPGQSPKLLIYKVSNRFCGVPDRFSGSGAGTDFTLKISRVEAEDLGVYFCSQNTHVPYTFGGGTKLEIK . Output its Percent Siglec-7 Surface Expression, Microglia only.
output: 34.2

input: Entry anti-Siglec-7 antibody 4E3 (antibody, V domains shown, VL FR1 there holds a Z); also called S7-4E3; mAb S7-4E3) VH: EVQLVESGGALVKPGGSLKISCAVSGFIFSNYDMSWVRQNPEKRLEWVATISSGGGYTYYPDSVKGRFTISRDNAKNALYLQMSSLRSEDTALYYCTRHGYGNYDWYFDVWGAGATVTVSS VL: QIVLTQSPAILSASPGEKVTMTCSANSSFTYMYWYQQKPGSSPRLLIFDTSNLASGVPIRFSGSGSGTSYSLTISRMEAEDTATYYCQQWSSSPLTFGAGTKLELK needs its Percent Siglec-7 Surface Expression, Microglia filled in; supply it.
output: 20.9

input: For the binder anti-Siglec-7 antibody 1A12 (antibody, V domains shown, also called 1Al2) VH: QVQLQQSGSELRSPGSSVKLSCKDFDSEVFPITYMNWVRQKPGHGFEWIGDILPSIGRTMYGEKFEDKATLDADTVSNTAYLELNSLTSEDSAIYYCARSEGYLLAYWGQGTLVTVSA VL: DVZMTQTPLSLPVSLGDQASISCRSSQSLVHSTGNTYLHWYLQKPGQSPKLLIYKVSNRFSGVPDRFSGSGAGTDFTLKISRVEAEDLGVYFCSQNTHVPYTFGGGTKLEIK , give its reported Percent Siglec-7 Surface Expression, Microglia.
output: 28.6

input: Provide one value: measured Percent Siglec-7 Surface Expression, Microglia of anti-Siglec-7 antibody 7E11 (antibody, V domains shown, Variable domains assembled from FR and CDR entries) VH: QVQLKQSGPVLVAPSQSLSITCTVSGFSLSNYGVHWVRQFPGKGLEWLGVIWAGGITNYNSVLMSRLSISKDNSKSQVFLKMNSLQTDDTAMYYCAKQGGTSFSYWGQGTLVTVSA VL: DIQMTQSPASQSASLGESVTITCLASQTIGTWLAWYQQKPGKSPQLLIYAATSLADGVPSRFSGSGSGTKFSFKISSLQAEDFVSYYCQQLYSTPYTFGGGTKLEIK
output: 11.5
